Test: In vitro urine stability assay (HPLC) of In-111 labeled peptide
Format: in vitro ADME
Conditions: rat urine, 37EC, 4 hours
Procedure: All reagents were purchased from Sigma unless otherwise noted. The peptide and ^111InCl3 in 0.05 N HCl were incubated in a sodium acetate/ascorbic acid buffer for 30 minutes at room temperature. The reaction was diluted with 5% ethanol/95% PBS before using in subsequent in vitro assays. Human serum was purchased from Sigma (H 1388). The labeled peptide was incubated in either human serum or rat urine at 37EC for the specified amount of time. […]
*1 amine or outer side, *2 acyl side, *3 side chain or, on linkers, in order; H or OH if unused. Where a SMILES comes first, the peptide text is derived from it. [ ]: non-standard residue; d: D form. The star is where a group is joined. ξ: configuration not given here. Gly(1-amidinopiperidin-4-yl) = N=C(N)N1CCC([C@H](N)C(=O)O)CC1; Ala(1-amidino-4-piperidyl) = N=C(N)N1CCC(C[C@H](N)C(=O)O)CC1; DTPA = O=C(O)CN(CCN(CC(=O)O)CC(=O)O)CCN(CC(=O)O)CC(=O)*; ξGly(4-Pip(1-amidino)) = N=C(N)N1CCC(C(N)C(=O)O)CC1; X3 = CC[C@H](C)[C@@H](COC(=O)[*:2])N[*:1]; Tle = CC(C)(C)[C@H](N)C(=O)O; NHOH = ON*
readout-name: % of peptide at 4 hours after incubation at 37EC, Urine (%)
Numbers only; they are read as %.

CC(C)C[C@H](NC(=O)[C@@H](NC(=O)[C@H](Cc1ccc(O)cc1)NC(=O)[C@@H]1CCCN1C(=O)[C@H](CCCNC(=N)N)NC(=O)C(NC(=O)[C@@H]1CCCN1C(=O)[C@H](CCCCN)NC(=O)[C@H](CC(N)=O)NC(=O)[C@H](CCC(=O)O)NC(=O)[C@@H](Cc1ccc(O)cc1)NC(=O)CN(CCN(CCN(CC(=O)O)CC(=O)O)CC(=O)O)CC(=O)O)C1CCN(C(=N)N)CC1)C(C)(C)C)C(=O)O (stereo partly drawn) [Compound XIII] ({DTPA}-[dY]ENKP[ξGly(4-Pip(1-amidino))]RPY[Tle]L-OH) : 86.8
CC(C)C[C@H](NC(=O)[C@@H](NC(=O)[C@H](Cc1ccc(O)cc1)NC(=O)[C@@H]1CCCN1C(=O)[C@H](CCCNC(=N)N)NC(=O)[C@H](CC1CCN(C(=N)N)CC1)NC(=O)[C@@H]1CCCN1C(=O)[C@@H](CCCCN)NC(=O)CN(CCN(CCN(CC(=O)O)CC(=O)O)CC(=O)O)CC(=O)O)C(C)(C)C)C(=O)O ({DTPA}-[dK]P[Ala(1-amidino-4-piperidyl)]RPY[Tle]L-OH) : 89.8

[ask] Give its % of peptide at 4 hours after incubation at 37EC, Urine value. Item: CC[C@H](C)[C@@H](COC(=O)N[C@@H](CC(C)C)C(=O)O)NC(=O)[C@H](Cc1ccc(O)cc1)NC(=O)[C@@H]1CCCN1C(=O)[C@H](CCCNC(=N)N)NC(=O)[C@@H](NC(=O)[C@@H]1CCCN1C(=O)[C@@H](CCCCN)NC(=O)CN(CCN(CCN(CC(=O)O)CC(=O)O)CC(=O)O)CC(=O)O)C1CCN(C(=N)N)CC1 ({DTPA}-[dK]P[Gly(1-amidinopiperidin-4-yl)]RPY[X3]L-OH)
[reply] 89.8

[ask] Give its % of peptide at 4 hours after incubation at 37EC, Urine value. Item: CC[C@H](C)[C@H](NC(=O)[C@H](Cc1ccc(O)cc1)NC(=O)[C@@H]1CCCN1C(=O)C(Cc1ccc(NC(=N)N)cc1)NC(=O)[C@H](CCCNC(=N)N)NC(=O)[C@@H]1CCCN1C(=O)[C@@H](CCCCN)NC(=O)CN(CCN(CCN(CC(=O)O)CC(=O)O)CC(=O)O)CC(=O)O)C(=O)N[C@@H](CC(C)C)C(=O)O (single isomer, unassigned)
[reply] 0

[ask] Give its % of peptide at 4 hours after incubation at 37EC, Urine value. Item: CC(C)C[C@H](NC(=O)[C@@H](NC(=O)[C@H](Cc1ccc(O)cc1)NC(=O)[C@@H]1CCCN1C(=O)[C@H](CCCNC(=N)N)NC(=O)C(NC(=O)[C@@H]1CCCN1C(=O)[C@@H](CCCCN)NC(=O)CN(CCN(CCN(CC(=O)O)CC(=O)O)CC(=O)O)CC(=O)O)C1CCN(C(=N)N)CC1)C(C)(C)C)C(=O)NO (stereo partly drawn) ({DTPA}-[dK]P[ξGly(4-Pip(1-amidino))]RPY[Tle]L-{NHOH})
[reply] 60.2

---

assay: In vitro urine stability assay (HPLC) of In-111 labeled peptide; format: in vitro ADME; conditions: rat, Table 4, rat urine, t = 4 h, read-out: Urine Stability, Urine (t = 4 h)
Where a SMILES comes first, the peptide text is derived from it. [ ]: non-standard residue; d: D form. The star is where a group is joined. DTPA = O=C(O)CN(CCN(CC(=O)O)CC(=O)O)CCN(CC(=O)O)CC(=O)*; Phe(4-guanidino) = N=C(N)Nc1ccc(C[C@H](N)C(=O)O)cc1; X1 = CC(C)C[C@@H](CN[C@@H](CC(C)C)C(N)=O)N*; Tle = CC(C)(C)[C@H](N)C(=O)O
readout-name: remaining at 4 h

Use the examples below as a reference point.
CC(C)C[C@@H](CN[C@@H](CC(C)C)C(N)=O)NC(=O)[C@H](Cc1ccc(O)cc1)NC(=O)[C@@H]1CCCN1C(=O)[C@H](CCCNC(=N)N)NC(=O)[C@H](Cc1ccc(NC(=N)N)cc1)NC(=O)[C@@H]1CCCN1C(=O)[C@@H](CCCCN)NC(=O)CN(CCN(CCN(CC(=O)O)CC(=O)O)CC(=O)O)CC(=O)O [metal not drawn] ({DTPA}-[dK]P[Phe(4-guanidino)]RPY-X1) : 95.7%
CC(C)C[C@H](NC(=O)[C@@H](NC(=O)[C@H](Cc1ccc(O)cc1)NC(=O)[C@@H]1CCCN1C(=O)[C@H](CCCN=C(N)N)NC(=O)[C@H](Cc1ccc(NC(=N)N)cc1)NC(=O)[C@@H]1CCCN1C(=O)[C@@H](CCCCN)NC(=O)CN(CCN(CCN(CC(=O)O)CC(=O)O)CC(=O)O)CC(=O)O)C(C)(C)C)C(=O)O [In-111-DTPA-DK-P-F(Gu)-R-P-Y-tBuG-L, metal not drawn] ({DTPA}-[dK]P[Phe(4-guanidino)]RPY[Tle]L-OH) : 51.1%

[ask] Give its remaining at 4 h value. Item: CC[C@H](C)[C@H](NC(=O)[C@H](Cc1ccc(O)cc1)NC(=O)[C@@H]1CCCN1C(=O)[C@H](CCCNC(=N)N)NC(=O)[C@H](CCCNC(=N)N)NC(=O)CN(CCN(CCN(CC(=O)O)CC(=O)O)CC(=O)O)CC(=O)O)C(=O)N[C@@H](CC(C)C)C(=O)O [In-111-DTPA-R-R-P-Y-I-L, metal not drawn, reference compound]
[reply] 14%

---

biological target: neurotensin receptors (Homo sapiens, UniProt P30989); assay: Competitive binding assay on frozen tissue sections of receptor-positive human tumors vs radioiodinated native neurotensin; conditions: Table 3
Sequence (P30989 whole entry): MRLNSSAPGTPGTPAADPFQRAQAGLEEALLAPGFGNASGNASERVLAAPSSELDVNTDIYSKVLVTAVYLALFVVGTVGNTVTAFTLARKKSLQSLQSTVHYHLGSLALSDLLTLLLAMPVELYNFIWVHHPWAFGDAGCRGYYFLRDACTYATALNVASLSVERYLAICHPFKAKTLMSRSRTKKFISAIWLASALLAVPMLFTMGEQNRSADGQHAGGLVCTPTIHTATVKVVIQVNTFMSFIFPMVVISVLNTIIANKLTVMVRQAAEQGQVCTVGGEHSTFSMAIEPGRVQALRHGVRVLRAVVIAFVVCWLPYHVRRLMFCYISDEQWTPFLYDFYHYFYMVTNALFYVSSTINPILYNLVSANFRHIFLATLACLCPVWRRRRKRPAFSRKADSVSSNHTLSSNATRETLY
Where a SMILES comes first, the peptide text is derived from it. [ ]: non-standard residue; d: D form. The star is where a group is joined. ξ: configuration not given here. DTPA = O=C(O)CN(CCN(CC(=O)O)CC(=O)O)CCN(CC(=O)O)CC(=O)*; ξGly(4-Pip(1-amidino)) = N=C(N)N1CCC(C(N)C(=O)O)CC1; Dmt = Cc1cc(O)cc(C)c1C[C@H](N)C(=O)O; Tle = CC(C)(C)[C@H](N)C(=O)O; Aze = O=C(O)[C@@H]1CCN1
Reported log10 Kd values for the following compounds.
Values reflect log10 of reported Kd (nM).

[ask] Give its log10 Kd value. Item: CC[C@H](C)[C@H](NC(=O)[C@H](Cc1ccc(O)cc1)NC(=O)[C@@H]1CCCN1C(=O)C(CCc1ccnc(N)n1)NC(=O)[C@H](CCCNC(=N)N)NC(=O)[C@@H]1CCCN1C(=O)[C@@H](CCCCN)NC(=O)CN(CCN(CCN(CC(=O)O)CC(=O)O)CC(=O)O)CC(=O)O)C(=O)N[C@@H](CC(C)C)C(=O)O (single isomer, unassigned)
[reply] 3.08

[ask] Give its log10 Kd value. Item: CC(C)C[C@H](NC(=O)[C@@H](NC(=O)[C@H](Cc1ccc(O)cc1)NC(=O)[C@@H]1CCCN1C(=O)[C@H](CCCNC(=N)N)NC(=O)C(NC(=O)[C@@H]1CCCN1C(=O)[C@H](CCCCN)NC(=O)[C@H](CC(N)=O)NC(=O)[C@H](CCC(=O)O)NC(=O)[C@@H](Cc1ccc(O)cc1)NC(=O)CN(CCN(CCN(CC(=O)O)CC(=O)O)CC(=O)O)CC(=O)O)C1CCN(C(=N)N)CC1)C(C)(C)C)C(=O)O (stereo partly drawn) [Compound XIII] ({DTPA}-[dY]ENKP[ξGly(4-Pip(1-amidino))]RPY[Tle]L-OH)
[reply] 0.65

[ask] Give its log10 Kd value. Item: CC(C)C[C@H](NC(=O)[C@@H](NC(=O)[C@H](Cc1ccc(O)cc1)NC(=O)[C@@H]1CCCN1C(=O)[C@H](CCCNC(=N)N)NC(=O)C(NC(=O)[C@@H]1CCN1C(=O)[C@@H](CCCCN)NC(=O)CN(CCN(CCN(CC(=O)O)CC(=O)O)CC(=O)O)CC(=O)O)C1CCN(C(=N)N)CC1)C(C)(C)C)C(=O)O (stereo partly drawn) ({DTPA}-[dK][Aze][ξGly(4-Pip(1-amidino))]RPY[Tle]L-OH)
[reply] 1.38

[ask] Give its log10 Kd value. Item: CC[C@H](C)[C@H](NC(=O)[C@H](Cc1ccc(O)cc1)NC(=O)[C@@H]1CCCN1C(=O)C(Cc1ccc(NC(=N)N)cc1)NC(=O)[C@H](CCCNC(=N)N)NC(=O)[C@@H]1CCCN1C(=O)[C@@H](CCCCN)NC(=O)CN(CCN(CCN(CC(=O)O)CC(=O)O)CC(=O)O)CC(=O)O)C(=O)N[C@@H](CC(C)C)C(=O)O (single isomer, unassigned)
[reply] 1.92

[ask] Give its log10 Kd value. Item: Cc1cc(O)cc(C)c1C[C@H](NC(=O)[C@@H]1CCCN1C(=O)[C@H](CCCNC(=N)N)NC(=O)C(NC(=O)[C@@H]1CCCN1C(=O)[C@@H](CCCCN)NC(=O)CN(CCN(CCN(CC(=O)O)CC(=O)O)CC(=O)O)CC(=O)O)C1CCN(C(=N)N)CC1)C(=O)N[C@H](C(=O)N[C@@H](CC(C)C)C(=O)O)C(C)(C)C (stereo partly drawn) ({DTPA}-[dK]P[ξGly(4-Pip(1-amidino))]RP[Dmt][Tle]L-OH)
[reply] 1.65
